Kindly state IC50 for each of the entries shown.
Tested on: p-IKKa levels in L363 (NIK translocated multiple myeloma) cells
Assay: Assay 2: Effect of compounds on p-IKKa levels in L363 (NIK translocated multiple myeloma) cells
Type: cell-based
Conditions: Homo sapiens, L-363, 6 h, read-out: Assay 2 IC50 (nM), p-IKKa (Ser 176/180) in BAFF stimulated L363 cells with MG132, 6 h; average if tested more than once

Reading of IC50 for CO[C@H]1C[C@@H](Nc2nccc(-c3cccc(-c4cc([C@]5(O)CCN(C)C5=O)on4)n3)n2)C1 with p-IKKa levels in L363 (NIK translocated multiple myeloma) cells: 50 to 500 nM

Reading of IC50 for C[C@@H](Nc1nccc(-c2cccc(-c3cc([C@]4(O)CCN(C)C4=O)on3)n2)n1)C(=O)N1CCC1 with p-IKKa levels in L363 (NIK translocated multiple myeloma) cells: > 500 nM

Reading of IC50 for Cc1cc(C(C)Nc2nccc(-c3cccc(-c4cc([C@]5(O)CCN(C)C5=O)on4)n3)n2)n[nH]1 (stereo partly shown) with p-IKKa levels in L363 (NIK translocated multiple myeloma) cells: 50 to 500 nM

Reading of IC50 for CN(C)Cc1cc(Nc2nccc(-c3cccc(-c4cc([C@]5(O)CCN(C)C5=O)on4)n3)n2)nn1C with p-IKKa levels in L363 (NIK translocated multiple myeloma) cells: 50 to 500 nM

Reading of IC50 for CN1CC[C@](O)(c2cn(-c3cccc(-c4ccnc(Nc5ccn(C)n5)n4)n3)cn2)C1=O (single isomer, unassigned) with p-IKKa levels in L363 (NIK translocated multiple myeloma) cells: > 500 nM

Reading of IC50 for CN1CC[C@@](O)(c2cc(-c3cccc(-c4ccnc(Nc5cnn(C)c5)n4)n3)on2)C1=O with p-IKKa levels in L363 (NIK translocated multiple myeloma) cells: < 50 nM

Reading of IC50 for C[C@@H](Nc1nccc(-c2cccc(-c3cc([C@]4(O)CCN(C)C4=O)on3)n2)n1)c1ccn(C)n1 (single isomer, unassigned) with p-IKKa levels in L363 (NIK translocated multiple myeloma) cells: > 500 nM

* * *

Kindly state IC50 for each of the entries shown.
System: p-IKKa levels in L363 (NIK translocated multiple myeloma) cells
Assay: Assay 2: Effect of compounds on p-IKKa levels in L363 (NIK translocated multiple myeloma) cells
Assay type: cell-based
Details: Homo sapiens, L-363, 6 h, read-out: Assay 2 IC50 (nM), p-IKKa (Ser 176/180) in BAFF stimulated L363 cells with MG132, 6 h; average if tested more than once

Input C[C@@H](Nc1nccc(-c2cccc(-c3cc([C@]4(O)CCN(C)C4=O)on3)n2)n1)C(=O)N1CCCCC1 [Example 179] . Output IC50: 50 to 500 nM

Input CO[C@@H]1COC[C@H]1Nc1nccc(-c2cccc(-c3cc([C@]4(O)CCN(C)C4=O)on3)n2)n1 [Example 354] . Output IC50: 50 to 500 nM

Input CN1CC[C@@](O)(c2cc(-c3cccc(-c4ccnc(Nc5ccon5)n4)n3)no2)C1=O [Example 186] . Output IC50: 50 to 500 nM

Input CN1CC[C@@](O)(c2cc(-c3cccc(-c4ccnc(Nc5nccn5C)n4)n3)no2)C1=O [Example 398] . Output IC50: > 500 nM

Input CC1CC(Nc2nccc(-c3cccc(-c4cc([C@]5(O)CCN(C)C5=O)on4)n3)n2)CO1 (mixture of isomers) [Example 343] . Output IC50: 50 to 500 nM

Input Cc1cncc(Nc2nccc(-c3cccc(-c4cc([C@]5(O)CCN(C)C5=O)on4)n3)n2)c1 [Example 245] . Output IC50: > 500 nM

Input CN1CC[C@@](O)(c2cc(-c3cccc(-c4ccnc(Nc5cc(F)n(C)n5)n4)n3)no2)C1=O [Example 295] . Output IC50: < 50 nM

* * *

Tested on: p-IKKa levels in L363 (NIK translocated multiple myeloma) cells
Assay: Assay 2: Effect of compounds on p-IKKa levels in L363 (NIK translocated multiple myeloma) cells
Assay type: cell-based
Conditions: Homo sapiens, L-363, 6 h, read-out: Assay 2 IC50 (nM), p-IKKa (Ser 176/180) in BAFF stimulated L363 cells with MG132, 6 h; average if tested more than once
measure name: IC50

Input COCC1CC(Nc2nccc(-c3cccc(-c4cc([C@]5(O)CCN(C)C5=O)on4)n3)n2)CO1 (stereo partly shown) [Example 366] . Output IC50: 50 to 500 nM

Input COc1nn(CC(C)(C)O)cc1Nc1nccc(-c2cccc(-c3cc([C@]4(O)CCN(C)C4=O)on3)n2)n1 [Example 49] . Output IC50: < 50 nM

Input CN1CC[C@@](O)(c2cn(-c3cccc(-c4ccnc(Nc5cn(C)nc5F)n4)n3)nn2)C1=O [Example 325] . Output IC50: 50 to 500 nM

Input COCc1cc(-c2ccnc(Nc3cnn(C)c3)n2)nc(-n2cc([C@]3(O)CCN(C)C3=O)nn2)c1 [Example 138] . Output IC50: 50 to 500 nM

Input CN1CC[C@@](O)(c2cc(-c3cccc(-c4ccnc(Nc5cnn(C)c5Cl)n4)n3)on2)C1=O [Example 407] . Output IC50: < 50 nM

Input C[C@@H](CF)Nc1nccc(-c2cccc(-c3cc([C@]4(O)CCN(C)C4=O)on3)n2)n1 [Example 348] . Output IC50: 50 to 500 nM

Input COc1cncc(Nc2nccc(-c3cccc(-c4cc([C@]5(O)CCN(C)C5=O)on4)n3)n2)c1 [Example 288] . Output IC50: < 50 nM

Input C[C@H](CC(F)(F)F)Nc1nccc(-c2cccc(-c3cc([C@]4(O)CCN(C)C4=O)on3)n2)n1 (single isomer, unassigned) [Example 438] . Output IC50: 50 to 500 nM

Input Cc1c(Nc2nccc(-c3cccc(-c4cc([C@@]5(O)C(=O)N(C)CC5(F)F)on4)n3)n2)cnn1CC(C)(C)O [Example 242] . Output IC50: 50 to 500 nM

Input CN1CC[C@@](O)(c2cc(-c3cccc(-c4ccnc(Nc5cc6n(n5)CCN(CC(F)(F)F)C6)n4)n3)no2)C1=O [Example 431] . Output IC50: 50 to 500 nM

Input CCO[C@@H]1COC[C@H]1Nc1nccc(-c2cccc(-c3cc([C@]4(O)CCN(C)C4=O)on3)n2)n1 [Example 352] . Output IC50: 50 to 500 nM

Input C[C@H](Nc1nccc(-c2cccc(-c3cc([C@]4(O)CCN(C)C4=O)on3)n2)n1)C1CC1 [Example 441] . Output IC50: > 500 nM

Input COc1cc(-c2ccnc(Nc3cnn(C)c3)n2)nc(-n2cc([C@]3(O)CCN(C)C3=O)nn2)c1 [Example 136] . Output IC50: < 50 nM

Input CN1CC[C@](O)(c2ncc(-c3cccc(-c4ccnc(Nc5ccn(C)n5)n4)n3)s2)C1=O (single isomer, unassigned) [Example 83] . Output IC50: 50 to 500 nM

Input CN1CCn2nc(Nc3nccc(-c4cccc(-c5cc([C@]6(O)CCN(C)C6=O)on5)c4)n3)cc2C1=O [Example 23] . Output IC50: 50 to 500 nM

Input CN1CC[C@@](O)(c2cc(-c3cccc(-c4ccnc(Nc5nn(C)c6ccncc56)n4)c3)no2)C1=O [Example 420] . Output IC50: > 500 nM

Input C[C@H](O)[C@@H](Nc1nccc(-c2cccc(-c3cc([C@]4(O)CCN(C)C4=O)on3)n2)n1)c1ccccc1 [Example 158] . Output IC50: > 500 nM

Input Cc1ncnn1-c1ccc(Nc2nccc(-c3cccc(-c4cc([C@]5(O)CCN(C)C5=O)on4)n3)n2)nc1 [Example 131] . Output IC50: 50 to 500 nM

Input CN1CC[C@@](O)(c2cc(-c3cccc(-c4ccnc(N[C@@H](CO)c5ccccn5)n4)n3)no2)C1=O [Example 387] . Output IC50: > 500 nM

Input Cc1cc(-c2cc([C@]3(O)CCN(C)C3=O)on2)nc(-c2ccnc(Nc3ccn(C)n3)n2)c1 [Example 100] . Output IC50: < 50 nM

Input CN1CC[C@@](O)(c2cn(-c3cc(C(F)F)cc(-c4ccnc(Nc5cnn(C)c5)n4)n3)nn2)C1=O [Example 137] . Output IC50: < 50 nM

Input CN1CC[C@@](O)(c2cc(-c3cccc(-c4ccnc(Nc5cc6n(n5)CCNC6)n4)n3)no2)C1=O [Example 430] . Output IC50: 50 to 500 nM

Input CN1CC[C@@](O)(c2cc(-c3cccc(-c4ccnc(Nc5ccn(CCN)n5)n4)n3)no2)C1=O [Example 204] . Output IC50: 50 to 500 nM

Input COc1cc(-c2cc([C@]3(O)CCN(C)C3=O)on2)nc(-c2ccnc(Nc3cnn(C)c3)n2)c1 [Example 145] . Output IC50: < 50 nM

Input C[C@H](Nc1nccc(-c2cccc(-n3cc([C@]4(O)CCN(C)C4=O)nn3)n2)n1)c1ncccn1 (single isomer, unassigned) [Example 143] . Output IC50: 50 to 500 nM

Input [2H]C([2H])([2H])C([2H])([2H])n1cc(Nc2nccc(-c3cccc(-c4cc([C@]5(O)CCN(C)C5=O)on4)n3)n2)cn1 [Example 74] . Output IC50: < 50 nM

Input CN1CC(F)(F)[C@@](O)(c2cc(-c3cccc(-c4ccnc(Nc5cnn(C)c5)n4)n3)no2)C1=O [Example 3] . Output IC50: < 50 nM

Input C[C@H](Nc1nccc(-c2cccc(-c3cc([C@]4(O)CCN(C)C4=O)on3)n2)n1)c1ccnn1C (single isomer, unassigned) [Example 68] . Output IC50: 50 to 500 nM

The measurements presented in this section are drawn from patent US20250282768A1.
